- targetUnderTest: Nucleoli Translocation, AR (gene 367) (UniProt P10275)
- Sequence (P10275 whole entry, looked up): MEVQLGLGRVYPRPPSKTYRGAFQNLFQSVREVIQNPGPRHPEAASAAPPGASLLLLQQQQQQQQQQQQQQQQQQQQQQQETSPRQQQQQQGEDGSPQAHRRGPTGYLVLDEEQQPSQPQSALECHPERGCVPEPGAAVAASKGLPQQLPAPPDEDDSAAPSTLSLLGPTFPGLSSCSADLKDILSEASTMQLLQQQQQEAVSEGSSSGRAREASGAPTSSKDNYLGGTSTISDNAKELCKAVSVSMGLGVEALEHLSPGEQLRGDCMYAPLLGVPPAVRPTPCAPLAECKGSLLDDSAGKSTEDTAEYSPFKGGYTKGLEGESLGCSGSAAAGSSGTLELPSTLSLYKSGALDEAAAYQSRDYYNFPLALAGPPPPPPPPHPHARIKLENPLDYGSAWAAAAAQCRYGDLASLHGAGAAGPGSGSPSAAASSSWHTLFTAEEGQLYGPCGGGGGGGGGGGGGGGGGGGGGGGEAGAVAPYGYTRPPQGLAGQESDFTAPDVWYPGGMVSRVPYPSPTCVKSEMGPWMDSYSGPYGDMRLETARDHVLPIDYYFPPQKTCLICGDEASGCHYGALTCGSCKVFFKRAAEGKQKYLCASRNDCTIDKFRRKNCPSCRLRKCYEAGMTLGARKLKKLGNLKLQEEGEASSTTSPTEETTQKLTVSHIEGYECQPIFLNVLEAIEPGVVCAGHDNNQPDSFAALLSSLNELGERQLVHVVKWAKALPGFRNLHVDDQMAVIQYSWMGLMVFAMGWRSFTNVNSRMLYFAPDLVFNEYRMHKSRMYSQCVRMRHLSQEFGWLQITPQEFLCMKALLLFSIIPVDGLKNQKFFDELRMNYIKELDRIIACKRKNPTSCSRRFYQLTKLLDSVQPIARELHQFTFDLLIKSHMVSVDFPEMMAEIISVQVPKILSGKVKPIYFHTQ
- assayProtocol: UPITT_HCI_U2OS_AR_TIF2_Nucleoli_Agonist: University of Pittsburgh U2OS Androgen Receptor-Transcriptional Intermediary Factor 2 (AR-TIF2) Agonism High Content Imaging Assay for Nucleoli Translocation (AID 2283998)
Results filed as inconclusive are left out. The source made the active and inactive calls. The calls were made as follows: active = hit-call score of the fitted dose curve at least 0.9, where 1 is the maximum; inconclusive = response in the unintended direction; inactive = score below 0.9.
Pick from active, inactive when you respond.

Observe how each entry below is paired with its result.
>>> print(df.to_string())
                                   compound  classlabel
0                     CCCCOC(=O)c1ccc(O)cc1    inactive
1                           Oc1ccc2ccccc2c1    inactive
2  Cc1cc(F)ccc1-c1cc(N2CC[C@@H](O)[C@H]2CO)ncc1N(C)C(=O)C(C)(C)c1cc(C(F)(F)F)cc(C(F)(F)F)c1      active
3      O=c1c(-c2ccc(O)cc2)coc2cc(O)cc(O)c12    inactive
4  CCN(Cc1cccnc1)C(=O)c1cccc(Cl)c1[C@]1(C)C(=O)N(Cc2ccc(OC)cc2OC)c2ccc(Cl)cc21    inactive
5                          CCCC(=O)OCCC(C)C    inactive
6                          Cc1ccc(C(C)C)cc1    inactive
7  COc1cc(C(=O)NC2CCN(C)CC2)ccc1Nc1ncc2c(n1)N(C1CCCC1)CC(F)(F)C(=O)N2C      active

Task: # outcome recorded in this test, key = Cc1occc1C(=O)Nc1ccc(C(=O)N2CCC(F)(F)/C(=C\C(=O)N3CCC(N4CCCCC4)CC3)c3ccccc32)cc1
Result: inactive

Task: # outcome recorded in this test, key = COCC(C)OCC(C)OCC(C)O (stereo not given)
Result: inactive
